Tested on: SKOV3
ASSAY_NOTES: Primary qHTS to identify gynecologic anti-cancer compounds using libraries of approved drugs and bioactive compounds (AID 1345084); note: nearly all actives have a fitted effect of over 55% in size
CONDITION_INFO: Gynecologic cancer cell panel viability, ATPlite luminescence, 48 h; series mostly up to 57.5 µM
Results filed as inconclusive are left out. Active and inactive are the calls of the source. Calls come from the whole dose curve; as a rule, active = well fitted cell-killing curve with a large enough effect; inconclusive = small, poorly fitted or top-dose-only effect, or effect the other way; inactive = flat fitted curve, though single readings scatter.
RESULT_TYPE: activity change, negative = cytotoxicity

Worked set:
| COMPOUND | TARGET_OR_SYSTEM | activity change, negative = cytotoxicity |
| --- | --- | --- |
| CCC1CC2C(C)=CC3CCCCC3C2(C)C2(OC(=O)C(C)(O)OC2=O)O1 (stereo not given) | SKOV3 | inactive |
| N[C@H]1C[C@H]1c1ccc(-c2cccc(O)c2)cc1 | SKOV3 | inactive |
| CC(=O)N1c2ccccc2C2(O)CC3C(=O)NC(CC(C)C)C(=O)N3C12 (stereo not given) | SKOV3 | inactive |
| COc1ccc([C@@H]2N[C@H](C(=O)O)Cc3c2[nH]c2ccccc32)cc1CN1CCN(c2ccccc2F)CC1 | SKOV3 | inactive |
| C[C@@H]1O[C@@H](OC[C@H]2O[C@@H](OCCc3ccccc3)[C@H](O)[C@@H](O)[C@@H]2O)[C@H](O)[C@H](O)[C@H]1O | SKOV3 | inactive |

Req: Complete the entry with activity change, negative = cytotoxicity for CC(C)C1=CCC(C)(O)C(OC2OC(CO)C(O)C(O)C2O)C1 (stereo not given)
Resp: inactive

Req: Complete the entry with activity change, negative = cytotoxicity for C=C1CC/C=C(/CO)C(=O)C[C@@H]2[C@@H]1CC2(C)C
Resp: inactive

Req: Complete the entry with activity change, negative = cytotoxicity for COc1ccccc1-n1c(SCC(=O)Nc2nc3ccc(C)cc3s2)nc2c(c1=O)SCC2
Resp: inactive

Req: Complete the entry with activity change, negative = cytotoxicity for C/C=C/C1=CC2=C(CO1)C(=O)[C@](C)(O)[C@H](OC(=O)c1c(O)cc(OC)c(O)c1C)C2
Resp: inactive

Req: Complete the entry with activity change, negative = cytotoxicity for O=c1c2ccccc2nc2n1CCC2O (stereo not given)
Resp: inactive

====

ASSAY_NOTES: P-glycoprotein substrates identified in KB-3-1 adenocarcinoma cell line, qHTS therapeutic library screen (AID 1346986); note: nearly all actives have a fitted effect of over 60% in size
CONDITION_INFO: KB-3-1 parental cells viability, CellTiter-Glo, 72 h; series mostly up to 44.5 µM
Inconclusive results are not listed. The source made the active and inactive calls. The call rests on the fitted dose curve; in most records, active means well fitted inhibition curve with a large enough effect; inconclusive means small, poorly fitted or top-dose-only effect; inactive means no such curve, though single readings can be large or run the other way.
RESULT_TYPE: outcome

Worked set:
| MOLECULE | outcome |
| --- | --- |
| COc1ccc2c(c1)OC[C@]1(O)c3cc4c(cc3O[C@H]21)OCO4 | inactive |
| C/C(=C\CCC(C)(O)c1ccc(C)cc1)C(=O)O (stereo not given) | inactive |
| CC1=CC(=O)CC(C)(CO[C@@H]2O[C@H](CO)[C@@H](O)[C@H](O)[C@H]2O)C1(O)/C=C/C(C)=C/C(=O)O (stereo not given in full) | inactive |
| COc1ccccc1[C@@H]1C2=C(CC(C)(C)CC2=O)Nc2n[nH]c(C(F)(F)F)c21 | inactive |

Req: Complete the entry with outcome for OC[C@H]1O[C@@H](Oc2cc(O)cc(/C=C/c3ccc(O)cc3)c2)[C@H](O)[C@@H](O)[C@@H]1O
Resp: inactive

Req: Complete the entry with outcome for C=C1C2=CC(O)C(C)C1(C)CC/C(C)=C/CCC1(C)OC1C2=O (stereo not given)
Resp: inactive

Req: Complete the entry with outcome for CC(C)[C@@H](C)/C=C/[C@@H](C)[C@H]1CC[C@H]2C3=CC=C4C[C@@H](O)CC[C@]4(C)[C@H]3CC[C@]12C
Resp: inactive

Req: Complete the entry with outcome for CC(NC(=O)CC(=O)O)c1nc2ccccc2c(=O)[nH]1 (stereo not given)
Resp: inactive

Req: Complete the entry with outcome for O=C(O)c1ccc(CCCc2ccc(OCCc3ccc(F)cc3)cc2)o1
Resp: inactive

Req: Complete the entry with outcome for Nc1nc(CC(=O)Nc2ccc(CCNCC(O)c3ccccc3)cc2)cs1 (stereo not given)
Resp: inactive
